Could you please report measured % control score, Obs for the items listed next?
- Test system: weeds
- Measurement Description: Glasshouse weed control, HST inhibitors alone and with A22, post-emergence
- Type: in vivo
- Measurement Context: DIGSA, 14 DAT, 62.5 g/ha alone, single replicate
- Experimental: In a further test, the results of which are depicted in tables 18 and 19, weed seeds are planted out in trays containing 50% peat/50% John Innes no. 3 soil and grown in the glass house at 24-27 C day; 18-21 C night and approximately a 15 h photoperiod. Humidity is ˜65% and light levels at bench level are up to 2 mmol/m^2. […] Plants are assessed at 14 DAT with herbicidal damage scored on a scale from 0 to 100%. […]
Write down the numeric answer in % and omit the unit.

[in] Enter % control score, Obs (test system weeds) for CC(C)C(=O)Oc1c(-c2c(Cl)cccc2C(F)(F)F)c(=O)n(CC(F)F)c2nccnc12
[out] 50

[in] Enter % control score, Obs (test system weeds) for C#Cn1c(=O)c(-c2c(F)ccc(F)c2Cl)c(O)c2nccnc21
[out] 30

[in] Enter % control score, Obs (test system weeds) for CC(C)(C)C(=O)Oc1c(-c2c(F)ccc(Cl)c2Cl)c(=O)n(CC(F)F)c2nccnc12
[out] 2

[in] Enter % control score, Obs (test system weeds) for O=c1c(-c2c(F)ccc(F)c2Cl)c(O)c2nccnc2n1CC(F)F
[out] 35

###

- System Tested: Arabidopsis HST (Arabidopsis thaliana, UniProt Q1ACB3)
- Construct: GST (factor Xa cleavage site) (N); made in house; host or cells: Sf9 insect cells (baculovirus, pAcG3X), membrane fraction
- Sequence (Q1ACB3 70-386): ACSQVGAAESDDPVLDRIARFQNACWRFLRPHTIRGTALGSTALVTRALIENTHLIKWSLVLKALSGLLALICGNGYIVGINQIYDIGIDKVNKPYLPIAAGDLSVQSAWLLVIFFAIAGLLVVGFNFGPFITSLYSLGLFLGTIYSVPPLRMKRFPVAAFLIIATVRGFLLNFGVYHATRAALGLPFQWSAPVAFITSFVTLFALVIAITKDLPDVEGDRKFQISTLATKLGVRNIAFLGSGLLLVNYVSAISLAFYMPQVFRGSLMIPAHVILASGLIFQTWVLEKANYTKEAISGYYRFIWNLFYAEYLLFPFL
- Measurement Description: HST total extraction (non TLC) assay, recombinant Arabidopsis HST from insect cells
- Assay type: biochemical
- Measurement Context: 3 point dose curves only conducted at 50 μM HPP
Marks after values point to notes of the source that are not given here.
Could you please report measured Estimated IC50 (ppm) for the items listed next?

[in] Answer with reported Estimated IC50 (ppm) of Cn1c(=O)c(-c2c(F)ccc(Br)c2Cl)c(O)c2nccnc21
[out] 48* ppm

[in] Answer with reported Estimated IC50 (ppm) of O=c1c(-c2c(F)ccc(F)c2Cl)c(O)c2cccnc2n1CC(F)F
[out] 54* ppm

[in] Answer with reported Estimated IC50 (ppm) of Cn1c(=O)c(-c2c(F)ccc(F)c2Cl)c(O)c2nccnc21
[out] 211* ppm

[in] Answer with reported Estimated IC50 (ppm) of Cc1cc(C)c(-c2c(O)c3nccnc3n(CC(F)F)c2=O)c(C)c1
[out] 31* ppm

[in] Answer with reported Estimated IC50 (ppm) of O=c1c(-c2c(F)ccc(F)c2Cl)c(O)c2nccnc2n1CC(F)F
[out] 19* ppm

###

- Test system: weeds
- Measurement Description: Glasshouse weed control, HST inhibitors alone and with A22, post-emergence
- Format: in vivo
- Measurement Context: Echinochloa crus-galli, 336 h, ECHCG, 14 DAT, 250 g/ha alone, single replicate, read-out: % control score, Obs
Readout Kind: pest or weed control at 250 g/ha (%)
Write down the numeric answer in % and omit the unit.

[in] Answer with reported pest or weed control at 250 g/ha of O=c1c(-c2c(F)ccc(F)c2Cl)c(O)c2nccnc2n1CC(F)(F)F
[out] 40

[in] Answer with reported pest or weed control at 250 g/ha of O=c1c(-c2c(F)ccc(Br)c2Cl)c(O)c2nccnc2n1CC(F)F
[out] 65

[in] Answer with reported pest or weed control at 250 g/ha of O=c1c(-c2c(Cl)cccc2C(F)(F)F)c(O)c2nccnc2n1CC(F)F
[out] 90

[in] Answer with reported pest or weed control at 250 g/ha of O=c1c(-c2c(Cl)ccc(Cl)c2Cl)c(O)c2nccnc2n1CC(F)F
[out] 65

[in] Answer with reported pest or weed control at 250 g/ha of O=c1c(-c2cc(C(F)(F)F)ccc2Cl)c(O)c2nccnc2n1CC(F)F
[out] 70

[in] Answer with reported pest or weed control at 250 g/ha of O=c1c(-c2c(F)ccc(Br)c2Cl)c(O)c2cccnc2n1CC(F)F
[out] 2

[in] Answer with reported pest or weed control at 250 g/ha of O=c1c(-c2cc(Cl)ccc2C(F)(F)F)c(O)c2nccnc2n1CC(F)F
[out] 75

[in] Answer with reported pest or weed control at 250 g/ha of CC1=NN(C)C(=O)C(c2c(C)cc(C)cc2C)C1=O (centres unmarked)
[out] 50

[in] Answer with reported pest or weed control at 250 g/ha of Cn1c(=O)c(-c2c(Cl)cccc2C(F)(F)F)c(O)c2nccnc21
[out] 50

[in] Answer with reported pest or weed control at 250 g/ha of O=c1c(-c2c(F)ccc(Cl)c2Cl)c(O)c2nccnc2n1CC(F)F
[out] 40

[in] Answer with reported pest or weed control at 250 g/ha of O=S1(=O)C(c2ccc(Br)cc2C(F)(F)F)=C(O)c2nccnc2N1CC(F)F
[out] 30

###

- Test system: weeds
- Measurement Description: Glasshouse weed control, HST inhibitors alone and with A22, post-emergence
- Type: in vivo
- Measurement Context: 336 h, SIDSP, 14 DAT, 15.625 g/ha alone, single replicate, read-out: % control score, Obs
Readout Kind: pest or weed control at 15.625 g/ha (%)
Write down the numeric answer in % and omit the unit.

[in] Answer with reported pest or weed control at 15.625 g/ha of O=S1(=O)C(c2ccc(Br)cc2C(F)(F)F)=C(O)c2nccnc2N1CC(F)F
[out] 2

[in] Answer with reported pest or weed control at 15.625 g/ha of Cn1c(=O)c(-c2c(Cl)cccc2C(F)(F)F)c(O)c2nccnc21
[out] 5

[in] Answer with reported pest or weed control at 15.625 g/ha of O=c1c(-c2c(Cl)cccc2C(F)(F)F)c(O)c2nccnc2n1CC(F)F
[out] 10

[in] Answer with reported pest or weed control at 15.625 g/ha of O=c1c(-c2c(F)ccc(F)c2Cl)c(O)c2nccnc2n1CC(F)(F)F
[out] 5

[in] Answer with reported pest or weed control at 15.625 g/ha of O=c1c(-c2cc(Cl)ccc2C(F)(F)F)c(O)c2nccnc2n1CC(F)F
[out] 15

[in] Answer with reported pest or weed control at 15.625 g/ha of O=c1c(-c2cc(C(F)(F)F)ccc2Cl)c(O)c2nccnc2n1CC(F)F
[out] 10

[in] Answer with reported pest or weed control at 15.625 g/ha of O=c1c(-c2c(F)ccc(Cl)c2Cl)c(O)c2nccnc2n1CC(F)F
[out] 5

[in] Answer with reported pest or weed control at 15.625 g/ha of O=c1c(-c2c(Cl)ccc(Cl)c2Cl)c(O)c2nccnc2n1CC(F)F
[out] 15

[in] Answer with reported pest or weed control at 15.625 g/ha of O=c1c(-c2c(F)ccc(Br)c2Cl)c(O)c2nccnc2n1CC(F)F
[out] 30

[in] Answer with reported pest or weed control at 15.625 g/ha of CC1=NN(C)C(=O)C(c2c(C)cc(C)cc2C)C1=O (centres unmarked)
[out] 5

[in] Answer with reported pest or weed control at 15.625 g/ha of O=c1c(-c2c(F)ccc(Br)c2Cl)c(O)c2cccnc2n1CC(F)F
[out] 0

###

- System: weeds
- Measurement Description: Glasshouse weed control, HST inhibitors alone and with A22, post-emergence
- Type: in vivo
- Measurement Context: SETFA, 14 DAT, 15.625 g/ha alone, single replicate
- Experimental: In a further test, the results of which are depicted in tables 18 and 19, weed seeds are planted out in trays containing 50% peat/50% John Innes no. 3 soil and grown in the glass house at 24-27 C day; 18-21 C night and approximately a 15 h photoperiod. Humidity is ˜65% and light levels at bench level are up to 2 mmol/m^2. […] Plants are assessed at 14 DAT with herbicidal damage scored on a scale from 0 to 100%. […]
Could you please report measured % control score, Obs for the items listed next?
Write down the numeric answer in % and omit the unit.

[in] Answer with reported % control score, Obs of CC(C)C(=O)Oc1c(-c2c(Cl)cccc2C(F)(F)F)c(=O)n(CC(F)F)c2nccnc12
[out] 2

[in] Answer with reported % control score, Obs of O=c1c(-c2c(F)ccc(F)c2Cl)c(O)c2nccnc2n1CC(F)F
[out] 5

[in] Answer with reported % control score, Obs of CC(C)(C)C(=O)Oc1c(-c2c(F)ccc(Cl)c2Cl)c(=O)n(CC(F)F)c2nccnc12
[out] 1

[in] Answer with reported % control score, Obs of C#Cn1c(=O)c(-c2c(F)ccc(F)c2Cl)c(O)c2nccnc21
[out] 10

###

- System: weeds
- Measurement Description: Glasshouse weed control, HST inhibitors alone and with A22, post-emergence
- Assay type: in vivo
- Measurement Context: Digitaria sanguinalis, 336 h, DIGSA, 14 DAT, 62.5 g/ha alone, single replicate, read-out: % control score, Obs
Could you please report measured pest or weed control at 62.5 g/ha for the items listed next?
Write down the numeric answer in % and omit the unit.

[in] Enter pest or weed control at 62.5 g/ha (test system weeds) for O=c1c(-c2c(F)ccc(Br)c2Cl)c(O)c2nccnc2n1CC(F)F [Compound 2.8]
[out] 20

[in] Enter pest or weed control at 62.5 g/ha (test system weeds) for O=c1c(-c2c(Cl)ccc(Cl)c2Cl)c(O)c2nccnc2n1CC(F)F [Compound 2.14]
[out] 20

[in] Enter pest or weed control at 62.5 g/ha (test system weeds) for O=c1c(-c2c(F)ccc(Br)c2Cl)c(O)c2cccnc2n1CC(F)F [Compound 2.15]
[out] 0

[in] Enter pest or weed control at 62.5 g/ha (test system weeds) for Cn1c(=O)c(-c2c(Cl)cccc2C(F)(F)F)c(O)c2nccnc21 [Compound 2.16]
[out] 2

[in] Enter pest or weed control at 62.5 g/ha (test system weeds) for O=c1c(-c2c(F)ccc(Cl)c2Cl)c(O)c2nccnc2n1CC(F)F [Compound 2.21]
[out] 10

These data points were gathered from patent US20110173718A1.
